Record form. Attribute: folding stability dG. Fill in for each entry.
B1: EEHEE_rd4_0763 (parent)
chain: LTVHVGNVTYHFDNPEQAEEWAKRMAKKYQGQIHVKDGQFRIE

Variants of: B1
Test: folding stability dG (cDNA display proteolysis); higher = more stable
Conditions: PBS, room temperature
Answers are plain numbers, in kcal/mol.

* E19R | 1.69
* H4Q | 1.72
* E20Y | 1.69

Task: So what's the measured folding stability dG for this one? E20L
Output: 1.69
